biological target: Metabotropic glutamate receptor 4 (Rattus norvegicus); experiment: PubChem AID 2179; conditions: HEK/GIRK rat mGluR4, thallium flux, glutamate CRC fold-shift; call rule not given here
Answer with one of the outcomes given here: active, inactive

{"smilesEntry": "COc1cc(NC(=O)c2ccccn2)ccc1C", "targetDesc": "Metabotropic glutamate receptor 4 (Rattus norvegicus)", "assignedClass": "active"}
{"smilesEntry": "COc1ccc(NC(=O)c2ccccn2)cc1Cl", "targetDesc": "Metabotropic glutamate receptor 4 (Rattus norvegicus)", "assignedClass": "active"}

Now, please, on to the next molecule.
Name the outcome recorded for O=C(Nc1cccc(Cl)c1)c1ccccn1 in the assay.
active

---

biological target: Metabotropic glutamate receptor 4 (Rattus norvegicus); assay: PubChem AID 2179; conditions: HEK/GIRK rat mGluR4, thallium flux, glutamate CRC fold-shift
Active and inactive are the calls of the source. How the calls were made is not given here.
Answer with one of the outcomes given here: label 1 = active, label 0 = inactive

Solved cases (3 shown):
{"smilesEntry": "O=C(Nc1ccc(F)c(C(F)(F)F)c1)c1ccccn1", "assignedClass": "label 0"}
{"smilesEntry": "O=C(Nc1ccc(Cl)c(C(F)(F)F)c1)c1ccccn1", "assignedClass": "label 0"}
{"smilesEntry": "COc1cc(NC(=O)c2ccccn2)ccc1F", "assignedClass": "label 1"}

Now, please, on to the next compound.
Name the outcome recorded for COc1cc(NC(=O)c2ccccn2)ccc1Cl in the assay.
label 1
